target: monkey DLL3 on CHO-K1-cyno DLL3 cells (cynomolgus monkey); experiment: FACS, CHO-K1-cyno DLL3 cells, 0.8 nM antibody
Sequence (chain, as listed by the source limits assumed): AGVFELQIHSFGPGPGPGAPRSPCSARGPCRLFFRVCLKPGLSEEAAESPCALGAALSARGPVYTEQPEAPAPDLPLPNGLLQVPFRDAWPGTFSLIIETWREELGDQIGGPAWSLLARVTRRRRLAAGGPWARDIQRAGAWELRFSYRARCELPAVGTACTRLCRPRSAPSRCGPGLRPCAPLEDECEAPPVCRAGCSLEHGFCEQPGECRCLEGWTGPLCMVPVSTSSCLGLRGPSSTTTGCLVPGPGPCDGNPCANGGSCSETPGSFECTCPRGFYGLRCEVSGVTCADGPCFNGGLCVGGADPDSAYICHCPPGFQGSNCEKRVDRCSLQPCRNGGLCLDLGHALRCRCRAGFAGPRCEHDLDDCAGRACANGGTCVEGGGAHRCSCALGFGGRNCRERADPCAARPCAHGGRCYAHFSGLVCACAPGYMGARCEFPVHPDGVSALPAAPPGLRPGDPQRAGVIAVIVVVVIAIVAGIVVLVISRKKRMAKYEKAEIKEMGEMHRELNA
PARAMETER: MFI (MFI)
# value in MFI; strip the unit string

Prompt: Which MFI value belongs to Hab015VL4VH6a-hFc (scFv, part only; not given: scFv linker and human IgG1 Fc, V domains shown, not shown: another chain or arm of the molecule; a dimerising Fc or GST; small tags and cut ends) VL: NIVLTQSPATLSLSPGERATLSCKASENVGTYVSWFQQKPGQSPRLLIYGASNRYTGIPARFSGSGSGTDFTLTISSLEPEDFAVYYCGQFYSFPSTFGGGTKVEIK VH: EVQLVESGGGLVKPGGSLRLSCAASGITFSNFWMNWVRQAPEKGLEWVGQIRLKSDDYATHYAESVKGRFTISREDSKNTVYLQMNSLKTEDTAVYYCTTGYYFDYWGQGTTVTVSS ?
Completion: 4260

Prompt: Further, for Hab015VL4VH5a-hFc (scFv, part only; not given: VL-VH linker and human IgG1 Fc, V domains shown, not shown: another chain or arm of the molecule; a dimerising Fc or GST; small tags and cut ends) VL: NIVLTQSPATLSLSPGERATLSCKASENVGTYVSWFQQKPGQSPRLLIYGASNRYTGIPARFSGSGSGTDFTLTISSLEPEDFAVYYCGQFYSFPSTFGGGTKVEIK VH: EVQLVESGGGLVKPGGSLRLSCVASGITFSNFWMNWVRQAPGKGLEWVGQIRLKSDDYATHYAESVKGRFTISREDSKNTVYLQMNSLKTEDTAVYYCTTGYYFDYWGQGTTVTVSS ?
Completion: 4480

Prompt: Further, for Hab009VL1aVH1-hFc (scFv, part only; not given: scFv linker and human IgG1 Fc, V domains shown, not shown: another chain or arm of the molecule; a dimerising Fc or GST; small tags and cut ends) VL: DIVMTQSPLSLPVTPGEPASISCRASQTISDYLHWYLQKPGQSPQLLIKYASQSISGVPDRFSGSGSGSDFTLKISRVEAEDVGVYYCQQGHSFPLTFGQGTKLEIK VH: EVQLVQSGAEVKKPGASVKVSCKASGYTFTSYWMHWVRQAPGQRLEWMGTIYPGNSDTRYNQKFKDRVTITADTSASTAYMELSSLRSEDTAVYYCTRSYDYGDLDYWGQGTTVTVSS ?
Completion: 6880

Prompt: Further, for Hab008L3H5-hFc (scFv, part only; not given: scFv linker and human IgG1 Fc, V domains shown, not shown: another chain or arm of the molecule; a dimerising Fc or GST; small tags and cut ends) VL: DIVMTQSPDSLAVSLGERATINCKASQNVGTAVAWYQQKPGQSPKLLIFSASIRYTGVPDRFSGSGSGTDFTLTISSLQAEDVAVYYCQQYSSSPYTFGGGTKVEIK VH: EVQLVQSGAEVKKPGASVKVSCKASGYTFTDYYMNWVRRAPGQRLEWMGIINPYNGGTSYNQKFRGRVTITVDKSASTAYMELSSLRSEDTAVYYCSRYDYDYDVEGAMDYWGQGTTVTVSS ?
Completion: 3470
